In this section we review reported inhibition values for a set of molecules.
- Test target: Protein deacetylase HDAC6 (Homo sapiens)
- Conditions: at 10 µM
In all, about 5,600 compounds went through this assay and about 150 (2.7%) showed an effect of 50% or more. Only a selection was taken, and strong results are over-represented in it overall.
Note: unit % is implicit; provide only the numeric part.

Worked examples, 8 molecules total:
Molecule: CCOc1ccc(-n2c([C@@H](C)N(Cc3cccnc3)C(=O)Cc3ccc(OC(F)(F)F)cc3)nc3ncccc3c2=O)cc1
Test target: Protein deacetylase HDAC6 (Homo sapiens)
inhibition / %: -2.97

Molecule: CN(C)C(=O)COC(=O)Cc1ccc(OC(=O)c2ccc(NC(=N)N)cc2)cc1
Test target: Protein deacetylase HDAC6 (Homo sapiens)
inhibition / %: 96.5

Molecule: CN(C)C/C=C/C(=O)Nc1ccc(C(=O)Nc2cccc(Nc3ncc(Cl)c(-c4c[nH]c5ccccc45)n3)c2)cc1
Test target: Protein deacetylase HDAC6 (Homo sapiens)
inhibition / %: -4.86

Molecule: CC(=O)/N=c1/sc(S(N)(=O)=O)nn1C
Test target: Protein deacetylase HDAC6 (Homo sapiens)
inhibition / %: 0.67

Molecule: Nc1ccc(S(N)(=O)=O)cc1
Test target: Protein deacetylase HDAC6 (Homo sapiens)
inhibition / %: -5.55

Molecule: NS(=O)(=O)c1ccc(S(=O)(=O)Nc2cccc3c(Cl)c[nH]c23)cc1
Test target: Protein deacetylase HDAC6 (Homo sapiens)
inhibition / %: 79.5

Molecule: CCOc1ccc(NC(=S)N2CCC(C(O)(c3ccccc3)c3ccccc3)CC2)cc1
Test target: Protein deacetylase HDAC6 (Homo sapiens)
inhibition / %: -1.16

Molecule: CO[C@H]1/C=C/O[C@@]2(C)Oc3c(C)c(O)c4c(O)c(cc(O)c4c3C2=O)NC(=O)/C(C)=C\C=C\C(C)[C@H](O)[C@@H](C)[C@@H](O)[C@@H](C)[C@H](OC(C)=O)[C@@H]1C (stereo partly specified)
Test target: Protein deacetylase HDAC6 (Homo sapiens)
inhibition / %: 1.34

Query :: Reported inhibition, molecule CC[C@H](CC[C@@H](C)[C@H]1CC[C@H]2[C@@H]3CC=C4C[C@@H](O[C@@H]5O[C@H](CO)[C@@H](O)[C@H](O)[C@H]5O)CC[C@]4(C)[C@H]3CC[C@]12C)C(C)C : ____
Result :: 2.47

Query :: Next record, please: CC(=O)Nc1ccc(CC(=O)O)cc1
Result :: -5.64

Query :: Another: Cc1cccc(-c2n[nH]cc2-c2ccc3ncccc3n2)n1
Result :: -0.98
